- Test system: BEAS2B cells
- Measurement Protocol: Cell viability: resazurin assay
- Assay type: cell-based
- Condition Description: 1 day incubation, resazurin; n = 3
Quantity Measured: CC50 (µM)
Note: unit µM is implicit; provide only the numeric part.

Task: Name the reported CC50 value associated with the molecule C[C@@H]1[C@H](O)[C@@H](C)/C=C/C=C/C=C/C=C/C=C/C=C/C=C/[C@H](O[C@@H]2O[C@H](C)[C@@H](O)[C@H](N)[C@@H]2O)C[C@@H]2O[C@](O)(C[C@@H](O)C[C@@H](O)[C@H](O)CC[C@@H](O)C[C@@H](O)CC(=O)O[C@H]1C)C[C@H](O)[C@H]2C(=O)O [Amphotericin B, reference compound]
Output: 2.34

====

- Measurement Protocol: Cell viability: resazurin assay
- Type: cell-based
- Condition Description: human; 1 day incubation, resazurin; n = 3; read-out: BEAS2B Cell Viability CC50
Quantity Measured: CC50 at 1 day

Task: Name the reported CC50 at 1 day value associated with the molecule C[C@@H](c1ncncc1F)[C@](O)(Cn1cncn1)c1ccc(F)cc1F
Output: > 28.6 µM

====

Measured CC50 at 1 day of individual entries
- Measurement Protocol: Cell viability: resazurin assay
- Assay type: cell-based
- Condition Description: human, BEAS2B cells; 1 day incubation, resazurin; n = 3
- Experimental: BEAS2B cells were seeded in 384-well plates (100 μL; 3000/well/; BD Falcon, Catalogue No 353962) in RPMI-LHC8 (RPMI-1640 and LHC8 media combined in equal proportions) one day before experimentation. […] The fluorescence of each well at 545 nm (excitation) and 590 nm (emission) was determined using a multi-scanner (Clariostar: BMG Labtech). The percentage loss of cell viability was calculated for each well relative to vehicle (0.5% DMSO) treatment. […]

# Compound, CC50 at 1 day
measured = [
    ("Cc1cc(N2CCN(c3ccc(C(=O)N[C@@H]4CCCC[C@@H]4O)cc3)CC2)ccc1OC[C@@H]1CO[C@@](Cn2cncn2)(c2ccc(F)cc2F)C1", "> 14.6 µM"),
    ("Cc1cc(N2CCN(c3ccc(C(=O)N[C@H]4CCCC[C@H]4O)cc3)CC2)ccc1OC[C@@H]1CO[C@@](Cn2cncn2)(c2ccc(F)cc2F)C1", "> 14.6 µM"),
    ("CC[C@@H]([C@H](C)O)n1ncn(-c2ccc(N3CCN(c4ccc(OC[C@@H]5CO[C@@](Cn6cncn6)(c6ccc(F)cc6F)C5)cc4)CC3)cc2)c1=O [Posaconazole, reference compound]", "> 14.3 µM"),
    ("Cc1cc(N2CCN(c3ccc(C(=O)N[C@H]4CCCC[C@@H]4O)cc3)CC2)ccc1OC[C@@H]1CO[C@@](Cn2cncn2)(c2ccc(F)cc2F)C1", "> 14.6 µM"),
]

Next, consider the following compound.
Task: Name the reported CC50 at 1 day value associated with the compound Cc1cc(N2CCN(c3ccc(C(=O)N[C@@H]4CCCC[C@H]4O)cc3)CC2)ccc1OC[C@@H]1CO[C@@](Cn2cncn2)(c2ccc(F)cc2F)C1
Output: > 14.6 µM
